- ASSAY: yeast display, Sf9 membrane polyspecificity reagent, FACS + sequencing; frameworks hold sequencing errors

SEQUENCE_TEXT: QVQLVESGGGLVQAGGSLRLSCAASGSIYSHYAMGWYRQAPGKERELVAAITKSGSTTYYADSVKGRFTSSRDNAKNTVYLQMNSLKPEDTAVYDCWGQGTQVTVSS
polyreactivity (PSR sort gate): low polyreactivity
//
SEQUENCE_TEXT: QVQLVESGGGLVQPGGSLRLSCAASGRSFFGYPMGWYRQAPGKERELVATISGSGASTYYADSVKGRFTISRDNAKNTVYLQMNSLKPEDTAVYYFAARYVTNRHSRYYYWGQGTQVTVSS
polyreactivity (PSR sort gate): high polyreactivity
//
SEQUENCE_TEXT: QVQLVESGGGLVQAGGSLRLSCAASGSTFITNIMGWYRQAPGKERELVAAISYIDGTTYYADSVKGRFTISRDNAKNTVYLQMNSLKPEDTAVYYCAAYPYLYPLRFEEYDHWGQGTQVTVSS
polyreactivity (PSR sort gate): low polyreactivity
//
SEQUENCE_TEXT: QVQLVESGGGLVQAGGSLRLSCAASGFTFVWYTMGWYRQAPGKERELVAAISSSGGTTYYADSVKGRFTISRDNAKNTVYLQMNSLKPEDTAVYYCNVAYFYTTPTRGYNYWGQGTQVTVSS
polyreactivity (PSR sort gate): high polyreactivity
//
SEQUENCE_TEXT: QVQLEESGGGLVQAGGSLRLSCAASGSIFLGYAMGWYRQAPGKERELVAAITTVGSTNYADSVKGRFTISRDNAKNTVYLQMNSVKPEDTAVYYCAAGWVGWGEKYTLDYWGQGTQVTVSS
polyreactivity (PSR sort gate): high polyreactivity

* * *

- ASSAY: yeast display, Sf9 membrane polyspecificity reagent, FACS + sequencing; frameworks hold sequencing errors

SEQUENCE_TEXT: QVQLVESGGGLVQAGGSLRLTCAASGSTFITYAMGWYRQAPGKERELVAAIRVIGGRTYYADSVKGRFTISRDNAKNTVYLQMNSLKPEDTAVYYCAARPYKSYGYHYSYDYWGQGTQVTVSS
polyreactivity (PSR sort gate): high polyreactivity
//
SEQUENCE_TEXT: QVQLVESGGGLDQAGGSLRLSCAASGFTFPWYPMGWYRQAPGKEREMVAAISTGGSTDYADSVKGRFTISRDNAKNTVYLKMNILKPEDTAVYYCNAGYWVRKYYHGGYWGQGTQVTLSS
polyreactivity (PSR sort gate): high polyreactivity
//
SEQUENCE_TEXT: QVQLVESGGGLVQAGGSLRLSCAASGSTFYNYAMGWYRQAPGKERELVAAISSGGGITYYADSVKGRFTISRDNAKNTVYLQMNSLKPEDTAVYYCNVVNYYPKGNNRAQYWFNYWGQGTQVNVSS
polyreactivity (PSR sort gate): high polyreactivity
//
SEQUENCE_TEXT: QVQLVESGGGLVQAGGSLRLSCAASGSIFYNNAMGWYRQAPGKERELVAAISGSGDSTYYADSVKGRFTISRDNAKNSVYLQMNSLKPEDTAVYYCNATPYVLWWSDMDYWGQGTQVTVSS
polyreactivity (PSR sort gate): high polyreactivity
//
SEQUENCE_TEXT: QVQLVESGGGLVQAGGSLRLRCAASGFTFAPNAMGWYRQAPGKERELVAAITWSGGSTYYADSVKGRFTISRDNAKNTVYVQMNSLKPEDTAVYYCNAVSRSTVTGQHDFWGQGTQVTVSS
polyreactivity (PSR sort gate): high polyreactivity
//
SEQUENCE_TEXT: QVQLVESGGGLVQAGGSLRLSCAPSGNTFFLNAMGWYRQAPGKERELVAAITSSGGSTYYADSVKGRFTISRDNAKNTVYLQMNSLKPEDTAVYYCGTDRSYPPRSLNRRGPYEYWGQGTQVTVSS
polyreactivity (PSR sort gate): low polyreactivity
//
SEQUENCE_TEXT: QVQLVESGGGLVHAGGSLRLSCAASGRTFIAYAMGWYRQAPGKERELVADISLRGGSTYYADSVKGRFTISRDNAKNTVYLQMNSLKPEDTAVYYCNTRRLHGWLYGYEYWGQGTQVTVSS
polyreactivity (PSR sort gate): low polyreactivity
//
SEQUENCE_TEXT: QVQLEESGGGLVQAGGSLRLSCAASGSTFYAYAMGWYRQAPGKERELVAAIDSGGSTYYADSVKGRFTSSRDNAKNTVYLQMNSLKPEDTAVYYCAVRHRYTRAFWGRDYWGQGTQVTVSS
polyreactivity (PSR sort gate): low polyreactivity
//
SEQUENCE_TEXT: QVQLVESGGGLVQAGGSLRLSCAASGSTFRSNAMGWYRQAPGKERELVASITSRGGSTYYADSVKGRFTISRDNAKNTVYLQMNSLKPEDTAVYYCATARSYLTYSYHYDYWGQGTQVTVSS
polyreactivity (PSR sort gate): low polyreactivity
//
SEQUENCE_TEXT: QVQLVESGGGLVQAGGSLRLSCAASGRIFAFYARGWYRQAPGKERELVAAITSGGSTKYADSVKGRFTISRDNAKNTVYLQMNSLKPEDTAVYYCAAQYRYQRYSYAMEYWGQGTQVTVSS
polyreactivity (PSR sort gate): high polyreactivity
//
SEQUENCE_TEXT: QVQLVESGGGLVQAGGSLRLSCAASGRTFPGNAMGWYRQAPGKERELVAAISWSGTRTYYADSVKGRFTISRDNAKHTVYLQMNSLKPEDTAVYYCNVVVKGAWDYYPYDYWGQGTQVTVSS
polyreactivity (PSR sort gate): high polyreactivity
